# credit: paper PMC7430049

experiment: in vitro; conditions: PAMPA, pH 7.4
valueType: Papp at 24 h, 0.2 mM

*Q* Which measured Papp at 24 h, 0.2 mM value corresponds to "COc1cc2c(NC3CCN(C(C)C)CC3)nc(C3CCCCC3)nc2cc1OCCCN1CCCC1" ?
*A* 0.019 ×10⁻⁶ cm/s

---

Recorded fold reduction of G9a inhibitory activity compared to 12a, one value per entry.
target: human recombinant G9a (Homo sapiens); assay: G9a inhibition, peptide-based AlphaLISA assay; assay type: biochemical; settings: relative to 12a, from Table 1 IC50
Sequence (Q96KQ7 whole entry): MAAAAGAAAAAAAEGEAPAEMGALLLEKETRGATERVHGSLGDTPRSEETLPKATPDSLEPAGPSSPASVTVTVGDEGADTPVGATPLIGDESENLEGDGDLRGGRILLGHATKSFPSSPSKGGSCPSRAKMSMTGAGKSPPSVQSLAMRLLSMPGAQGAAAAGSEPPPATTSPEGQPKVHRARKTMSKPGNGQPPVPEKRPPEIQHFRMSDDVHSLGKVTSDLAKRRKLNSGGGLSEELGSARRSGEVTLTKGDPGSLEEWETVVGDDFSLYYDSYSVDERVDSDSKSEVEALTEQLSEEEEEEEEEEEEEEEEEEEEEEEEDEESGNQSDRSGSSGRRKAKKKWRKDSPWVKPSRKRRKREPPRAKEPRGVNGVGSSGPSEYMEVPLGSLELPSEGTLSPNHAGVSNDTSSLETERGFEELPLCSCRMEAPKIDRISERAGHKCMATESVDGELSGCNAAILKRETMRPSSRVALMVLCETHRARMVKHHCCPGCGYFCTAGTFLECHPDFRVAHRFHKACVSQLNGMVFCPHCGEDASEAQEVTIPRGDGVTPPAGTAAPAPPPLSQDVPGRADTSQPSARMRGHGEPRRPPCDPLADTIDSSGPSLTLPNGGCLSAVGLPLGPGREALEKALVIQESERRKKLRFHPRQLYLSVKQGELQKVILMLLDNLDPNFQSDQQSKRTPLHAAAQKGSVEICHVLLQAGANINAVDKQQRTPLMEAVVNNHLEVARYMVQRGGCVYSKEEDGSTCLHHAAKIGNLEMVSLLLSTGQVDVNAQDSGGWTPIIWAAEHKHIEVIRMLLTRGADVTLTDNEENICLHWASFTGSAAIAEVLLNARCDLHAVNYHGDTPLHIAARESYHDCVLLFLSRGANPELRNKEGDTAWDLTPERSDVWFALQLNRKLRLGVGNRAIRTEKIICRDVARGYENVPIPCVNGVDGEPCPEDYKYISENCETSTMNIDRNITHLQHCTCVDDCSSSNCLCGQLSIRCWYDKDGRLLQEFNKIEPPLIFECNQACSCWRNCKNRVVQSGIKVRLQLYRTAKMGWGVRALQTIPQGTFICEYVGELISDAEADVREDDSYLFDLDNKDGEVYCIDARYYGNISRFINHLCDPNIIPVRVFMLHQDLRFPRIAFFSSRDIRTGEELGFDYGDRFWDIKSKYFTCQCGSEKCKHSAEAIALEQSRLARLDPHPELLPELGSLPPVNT
Answer format: numeric, fold implied, no suffix.

INSERT INTO results (compound, reported) VALUES
  ('COc1cc2c(cc1OCCCN1CCCC1)NC(c1ccccc1)CN=C2NC1CCN(C(C)C)CC1 (stereo not shown) [13b]', 100);

*Q* Which measured fold reduction of G9a inhibitory activity compared to 12a value corresponds to "COc1cc2c(cc1OCCCN1CCCC1)N=C(C1CCCCC1)CC(NC1CCN(C(C)C)CC1)=N2" ?
*A* 130
